Recorded MIC for the following compounds
Tested on: Pseudomonas aeruginosa
Test: Antimicrobial activity against Pseudomonas aeruginosa ATCC 27853 incubated for 18 to 20 hrs
Assay type: functional
Settings: time 18-20 hrs
Where a SMILES comes first, the peptide text is derived from it. [ ]: non-standard residue; d: D form. Pro(4R-Bn) = O=C(O)[C@@H]1C[C@@H](Cc2ccccc2)CN1; Pro(cis-4-F) = O=C(O)[C@@H]1C[C@H](F)CN1; Pro(4S-NH2) = N[C@@H]1CN[C@H](C(=O)O)C1
Field: numeric (µM). Do not append units.

These solved cases illustrate the format of a correct answer.
1. CC[C@H](C)[C@H](NC(=O)[C@H](CCCNC(=N)N)NC(=O)CNC(=O)[C@H](CC(C)C)NC(=O)[C@H](Cc1ccccc1)NC(=O)[C@H](CCCCN)NC(=O)[C@H](CO)NC(=O)[C@H](Cc1ccccc1)NC(=O)[C@H](Cc1c[nH]c2ccccc12)NC(=O)[C@H](CCC(N)=O)NC(=O)[C@@H]1C[C@H](N)CN1C(=O)[C@@H](NC(=O)[C@@H](N)Cc1ccccc1)C(C)C)C(=O)N[C@@H](CC(C)C)C(N)=O (H-FV[Pro(4S-NH2)]QWFSKFLGRIL-NH2)
3.12
2. CC[C@H](C)[C@H](NC(=O)[C@H](CCCNC(=N)N)NC(=O)CNC(=O)[C@H](CC(C)C)NC(=O)[C@H](Cc1ccccc1)NC(=O)[C@H](CCCCN)NC(=O)[C@H](CO)NC(=O)[C@H](Cc1ccccc1)NC(=O)[C@H](Cc1c[nH]c2ccccc12)NC(=O)[C@H](CCC(N)=O)NC(=O)[C@@H]1C[C@H](F)CN1C(=O)[C@@H](NC(=O)[C@@H](N)Cc1ccccc1)C(C)C)C(=O)N[C@@H](CC(C)C)C(N)=O (H-FV[Pro(cis-4-F)]QWFSKFLGRIL-NH2)
12.5

Asked: Please report the measured MIC for CC[C@H](C)[C@H](NC(=O)[C@H](CCCNC(=N)N)NC(=O)CNC(=O)[C@H](CC(C)C)NC(=O)[C@H](Cc1ccccc1)NC(=O)[C@H](CCCCN)NC(=O)[C@H](CO)NC(=O)[C@H](Cc1ccccc1)NC(=O)[C@H](Cc1c[nH]c2ccccc12)NC(=O)[C@H](CCC(N)=O)NC(=O)[C@@H]1C[C@@H](Cc2ccccc2)CN1C(=O)[C@@H](NC(=O)[C@@H](N)Cc1ccccc1)C(C)C)C(=O)N[C@@H](CC(C)C)C(N)=O (H-FV[Pro(4R-Bn)]QWFSKFLGRIL-NH2)
Given back: 50
